Task for the reader: assign each of the following compounds its reported IC50.
# Study system: Recombinant Human MMP-13 (Homo sapiens, UniProt P45452)
# Construct: purchased R&D systems 511-MM
# Method summary: MMP-13 inhibitory activity (MMP-13 specific fluorescent substrate with quencher)
# Assay type: biochemical
# Details: Experimental Example 3; read-out: IC50 MMP13

Known results for compounds:
COCC(=O)NCC1(c2ccccc2)CC1(NS(=O)(=O)c1ccc(-c2ccc(Cl)cc2)s1)C(=O)O (stereo not shown) :: < 1000 nM
CC(=O)c1ccc(S(=O)(=O)N[C@@]2(C(=O)O)C(C)[C@@H]2c2ccccc2)s1 (stereo partly shown) :: ≥ 1000 nM
O=C(O)[C@]1(NS(=O)(=O)c2ccc(-n3cc(Cl)cn3)nc2)C[C@@H]1c1ccccc1 :: < 1000 nM
O=C(O)[C@]1(NS(=O)(=O)c2ccc(-n3cc(C(F)(F)F)cn3)nc2)C[C@@H]1c1ccccc1 :: < 1000 nM

State recorded IC50 for all listed compounds.
1. Cc1cc(N2CCN(S(=O)(=O)N[C@@]3(C(=O)O)C(C)[C@@H]3c3ccccc3)CC2=O)no1 (stereo partly shown)
2. O=C(O)C1(NS(=O)(=O)c2ccc(OCc3ccc(Cl)cc3Cl)cc2)C2CCc3ccccc3C21 (stereo not shown)
3. Cc1cnn(-c2ccc(S(=O)(=O)N[C@@]3(C(=O)O)C(C)[C@@H]3c3ccccc3)s2)c1 (stereo partly shown)

1. ≥ 10000 nM
2. < 1000 nM
3. < 100 nM

###

# Study system: Recombinant Human MMP-13 (Homo sapiens, UniProt P45452)
# Construct: purchased R&D systems 511-MM
# Method summary: MMP-13 inhibitory activity (MMP-13 specific fluorescent substrate with quencher)
# Format: biochemical
# Details: Recombinant Human MMP-13, fluorescent substrate, 25° C. for 1 h; read-out: IC50 MMP13 (Experimental Example 3)
pIC50: −log10 of the molar value.
Value type: pIC50

Look up pIC50 for the entries below, preserving their order.
1. O=C(Nc1cccc(C2CC2(NS(=O)(=O)c2ccc(-c3ccc(Cl)cc3)cc2)C(=O)O)c1)c1cccnc1 (centres unmarked) [Example 1-64]
2. COC(=O)Nc1cccc(C2CC2(NS(=O)(=O)c2ccc(-c3ccc(Cl)cc3)cc2)C(=O)O)c1 (centres unmarked) [Example 1-41]
3. O=C(O)[C@@]1(NS(=O)(=O)c2ccc3c(c2)Cc2cc(Br)ccc2-3)C[C@H]1c1ccccc1 [Example 1-109]
4. O=C(O)C1(NS(=O)(=O)c2ccc(-c3ccc(Cl)cc3)s2)CC1c1cccc(NS(=O)(=O)c2cccnc2)c1 (centres unmarked) [Example 1-136]

> 7.00
> 7.00
> 6.00
> 7.00

Consider the following items and state reported pIC50 for each.
1. CC(C)(CO)NC(=O)c1ccccc1C1CC1(NS(=O)(=O)c1ccc(-c2ccc(Cl)cc2)s1)C(=O)O (centres unmarked) [Example 2-78]
2. O=C(Cc1cccc(C2CC2(NS(=O)(=O)c2ccc(-c3cc(C(F)(F)F)on3)s2)C(=O)O)c1)N1CCOCC1 (centres unmarked) [Example 2-220]
3. O=C(O)C1(NS(=O)(=O)c2ccc(-c3ccc(Cl)cc3)s2)CC1c1cccc(CCO)c1 (centres unmarked) [Example 2-109]
4. O=C(O)C1(NS(=O)(=O)c2ccc(-c3ccc(Cl)cc3)s2)CC1c1cccc(CNc2cccnc2)c1 (centres unmarked) [Example 2-32]
5. COc1ccc(N2CCN(S(=O)(=O)NC3(C(=O)O)CC3c3ccccc3)CC2)cc1 (centres unmarked) [Example 2-64]
6. CN(C)CCOc1ccccc1C1CC1(NS(=O)(=O)c1ccc(-c2ccc(Cl)cc2)s1)C(=O)O (centres unmarked) [Example 2-49]
7. O=C(O)C1(NS(=O)(=O)c2ccc(-c3ccc(Cl)cc3)s2)CC1c1cccc(OCc2ccccc2)c1 (centres unmarked) [Example 2-36]

1. > 6.00
2. > 7.00
3. > 7.00
4. > 7.00
5. ≤ 6.00
6. ≤ 5.00
7. > 6.00

Need pIC50 for each of these compounds.
1. O=C(O)[C@]1(NS(=O)(=O)/C=C/c2ccccc2)C[C@@H]1c1ccccc1 [Example 2-140]
2. O=C(O)C1(NS(=O)(=O)c2ccc(-c3ccc(Cl)cc3)cc2)CC1c1cccc(OCc2cccnc2)c1 (centres unmarked) [Example 1-76]
3. O=C(NC1CCCC1)c1ccc(S(=O)(=O)NC2(C(=O)O)CC2c2ccccc2)s1 (centres unmarked) [Example 2-95]
4. COC(=O)c1ccccc1C1CC1(NS(=O)(=O)c1ccc(-c2ccc(Cl)cc2)s1)C(=O)O (centres unmarked) [Example 2-205]
5. C[C@]1(c2ccccc2)C[C@@]1(NS(=O)(=O)c1ccc(-c2ccc(Cl)cc2)s1)C(=O)O [Example 2-101]
6. CC(=O)OCCc1cccc(C2CC2(NS(=O)(=O)c2ccc(-c3ccc(Cl)cc3)s2)C(=O)O)c1 (centres unmarked) [Example 2-108]
7. C[C@@H]1[C@H](c2ccccc2)[C@]1(NS(=O)(=O)N1CCN(c2ccc(C(F)(F)F)cn2)CC1)C(=O)O [Example 2-5]
8. CC(=O)Nc1cccc(C2CC2(NS(=O)(=O)c2ccc(-c3ccc(Cl)cc3)cc2)C(=O)O)c1 (centres unmarked) [Example 1-40]

1: ≤ 6.00; 2: > 7.00; 3: ≤ 5.00; 4: > 6.00; 5: > 6.00; 6: > 7.00; 7: > 7.00; 8: > 7.00

Quick request: pIC50 for each listed item, please.
1. C[C@@H]1[C@H](c2ccccc2)[C@]1(NS(=O)(=O)c1ccc(-c2cc(C(C)(F)F)on2)s1)C(=O)O [Example 2-9]
2. CN(C)C(=O)Cc1cccc(C2CC2(NS(=O)(=O)c2ccc(-c3ccc(Cl)cc3)s2)C(=O)O)c1 (centres unmarked) [Example 2-189]
3. C[C@]1(c2ccccc2)C[C@@]1(NS(=O)(=O)c1ccc2c(c1)Cc1cc(Br)ccc1-2)C(=O)O [Example 2-100]
4. O=C(OCCCc1cccc(C2CC2(NS(=O)(=O)c2ccc(-c3cc(C(F)(F)F)on3)s2)C(=O)O)c1)N1CCOCC1 (centres unmarked) [Example 2-239]

["> 7.00", "> 7.00", "> 7.00", "> 7.00"]

Each of the following entries comes with a recorded value; kindly state pIC50 for each.
1. O=C(c1cccc(C2CC2(NS(=O)(=O)c2ccc(-c3ccc(Cl)cc3)s2)C(=O)O)c1)N1CCOCC1 (centres unmarked) [Example 2-73]
2. CN1CCN(C(=O)CCc2cccc(C3CC3(NS(=O)(=O)c3ccc(-c4cc(C(F)(F)F)on4)s3)C(=O)O)c2)CC1 (centres unmarked) [Example 2-235]
3. O=C(O)C1(NS(=O)(=O)c2ccc(-c3ccc(Cl)cc3)s2)CC1c1ccccc1O (centres unmarked) [Example 1-102]

["> 6.00", "> 7.00", "> 6.00"]

Each compound below has a reported value. Please supply its pIC50.
1. O=C(O)C1(NS(=O)(=O)N2CCN(c3ccc(C(F)(F)F)cn3)CC2)CC1c1ccccc1 (centres unmarked) [Example 2-68]
2. O=C(O)[C@]1(NS(=O)(=O)c2ccc(-c3cc4ccccc4s3)s2)C[C@@H]1c1ccccc1 [Example 2-113]

["> 7.00", "> 7.00"]

Look at this compound and give its reported pIC50. O=C(O)[C@]1(NS(=O)(=O)c2ccc(-c3nc(C(F)(F)F)cs3)s2)C[C@@H]1c1ccccc1 [Example 2-60] ≤ 6.00

###

# Study system: aggrecanase-1 (Homo sapiens)
# Sequence (O75173 213-837, species assumed): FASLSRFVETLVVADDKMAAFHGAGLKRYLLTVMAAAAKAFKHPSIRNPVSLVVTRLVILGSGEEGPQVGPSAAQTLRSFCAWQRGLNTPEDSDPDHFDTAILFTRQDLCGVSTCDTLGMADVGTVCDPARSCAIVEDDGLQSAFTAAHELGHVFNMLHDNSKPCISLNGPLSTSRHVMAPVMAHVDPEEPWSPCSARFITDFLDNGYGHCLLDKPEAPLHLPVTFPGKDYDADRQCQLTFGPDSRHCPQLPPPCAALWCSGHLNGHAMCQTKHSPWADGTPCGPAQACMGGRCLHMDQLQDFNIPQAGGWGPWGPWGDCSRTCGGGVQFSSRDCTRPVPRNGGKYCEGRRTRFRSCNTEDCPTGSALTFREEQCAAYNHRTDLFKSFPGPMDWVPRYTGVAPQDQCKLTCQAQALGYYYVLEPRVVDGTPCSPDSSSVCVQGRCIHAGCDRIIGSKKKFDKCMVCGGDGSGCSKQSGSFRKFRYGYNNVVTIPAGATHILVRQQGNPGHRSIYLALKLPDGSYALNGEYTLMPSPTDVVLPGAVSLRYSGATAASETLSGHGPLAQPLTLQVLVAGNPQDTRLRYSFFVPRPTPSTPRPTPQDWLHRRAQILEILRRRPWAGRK
# Method summary: Aggrecanase-1 inhibitory action (Particle Assay, GAG release from aggrecan-containing polyacrylamide particles)
# Format: biochemical
# Details: Experimental Example 1; read-out: IC50 AG1
pIC50: −log10 of the molar value.
Assignment: determine reported pIC50 for the given compounds.

Record excerpt, results attached:
CC1[C@H](c2ccccc2)[C@]1(NS(=O)(=O)c1ccc(-n2cc(Br)cn2)s1)C(=O)O (some centres unmarked) [Example 2-494] :: > 7.00
CC1C(c2ccccc2)C1(NS(=O)(=O)c1ccc(Cc2ccccc2)s1)C(=O)O (centres unmarked) [Example 2-508] :: ≤ 6.00
O=C(O)C1(NS(=O)(=O)c2ccc(-c3cc(C(F)(F)F)on3)s2)C2Cc3ccccc3C21 (centres unmarked) [Example 2-277] :: > 6.00
O=C(O)[C@]1(NS(=O)(=O)c2ccc(-c3cc(C(F)(F)F)on3)s2)C[C@@H]1c1ccc(CCCO)cc1 [Example 2-302] :: > 7.00

Quick one: give me pIC50 for each item below, same order please.
1. CC1[C@](C)(c2ccccc2)[C@]1(NS(=O)(=O)c1ccc(-c2cc(C(C)(F)F)on2)s1)C(=O)O (some centres unmarked) [Example 2-625]
2. CC1[C@H](c2ccccc2)[C@]1(NS(=O)(=O)c1ccc2nc(-c3ccccc3)[nH]c2c1)C(=O)O (some centres unmarked) [Example 2-596]

["> 7.00", "> 6.00"]

The following compounds each have a reported value; give each one's pIC50.
1. C[C@]1(c2ccccc2)C[C@@]1(NS(=O)(=O)c1ccc(-c2ccc3c(c2)OC(F)(F)O3)s1)C(=O)O [Example 2-544]
2. O=C(O)[C@]1(NS(=O)(=O)c2ccc(-c3cc(C(F)(F)F)on3)o2)C[C@@H]1c1ccccc1 [Example 2-371]
3. C[C@]1(c2ccccc2)C[C@@]1(NS(=O)(=O)c1ccc(-c2ccc(Cl)c([N+](=O)[O-])c2)s1)C(=O)O [Example 2-477]

1. > 6.00
2. ≤ 6.00
3. ≤ 6.00

Please state, for each entry, its recorded pIC50.
1. CC1[C@H](c2ccccc2)[C@]1(NS(=O)(=O)N1CCN(CCc2ccccc2)CC1)C(=O)O (some centres unmarked) [Example 2-531]
2. CC1[C@H](c2ccccc2)[C@]1(NS(=O)(=O)c1ccc(-c2cc(C(F)F)on2)s1)C(=O)O (some centres unmarked) [Example 2-353]
3. CC1[C@H](c2ccccc2)[C@]1(NS(=O)(=O)c1ccc(-n2cc(Cl)cn2)s1)C(=O)O (some centres unmarked) [Example 2-444]
4. C[C@]1(c2ccccc2)C[C@@]1(NS(=O)(=O)c1ccc(-n2cc(C(F)(F)F)cn2)cc1)C(=O)O [Example 2-506]
5. O=C(O)C1(NS(=O)(=O)c2ccc(-c3ccc(Cl)cc3)s2)CC1(COCCO)c1ccccc1 (centres unmarked) [Example 2-347]
6. CN(C)C(=O)CSCC1(c2ccccc2)CC1(NS(=O)(=O)c1ccc(-c2ccc(Cl)cc2)s1)C(=O)O (centres unmarked) [Example 2-357]
7. CC(O)c1cnn(-c2ccc(S(=O)(=O)N[C@@]3(C(=O)O)C(C)[C@@H]3c3ccccc3)s2)c1 (some centres unmarked) [Example 2-547]
8. O=C(O)C1(NS(=O)(=O)c2ccc(-c3ccc(Cl)cc3)s2)C2CCC(O)c3ccccc3C21 (centres unmarked) [Example 2-412]

≤ 6.00
> 7.00
> 7.00
≤ 6.00
> 7.00
> 7.00
> 7.00
> 7.00
